From: patent US20180296456A1

- TEST: Trypan blue cell viability, 7 days, melanoblasts
- Type: cell-based
- MEASUREMENT SETUP: human, 100 μM, relative to control, read-out: melanoblast viability after 7 days
Peptide text beside a SMILES is read from it.
MEASUREMENT LABEL: viability at 168 h, 100 µM (%)

COMPOUND | OBSERVED VALUE
CCCCCCCCCCCCCCCC(=O)N[C@@H](Cc1ccc(O)cc1)C(=O)N[C@@H](CCCNC(=N)N)C(=O)N[C@@H](CO)C(=O)N[C@@H](CCCNC(=N)N)C(=O)N[C@@H](CCCCN)C(=O)N[C@@H](Cc1ccc(O)cc1)C(=O)N[C@@H](CO)C(=O)N[C@@H](CO)C(=O)N[C@@H](Cc1c[nH]c2ccccc12)C(=O)N[C@@H](Cc1ccc(O)cc1)C(N)=O [P4A, Palmitoyl-YRSRKYSSWY-amide] (HELM PEPTIDE1{[CCCCCCCCCCCCCCCC(=O)[*:2]].Y.R.S.R.K.Y.S.S.W.Y.[am]}$$$$V2.0) | 97
CCCCCCCCCCCCCCCC(=O)N[C@@H](Cc1ccc(O)cc1)C(=O)N[C@@H](CCCNC(=N)N)C(=O)N[C@@H](CO)C(=O)N[C@@H](CCCNC(=N)N)C(=O)N[C@@H](CCCCN)C(=O)N[C@H](Cc1ccc(O)cc1)C(=O)N[C@@H](CO)C(=O)N[C@@H](CO)C(=O)N[C@@H](Cc1c[nH]c2ccccc12)C(=O)N[C@@H](Cc1ccc(O)cc1)C(N)=O [P4B, Palmitoyl-YRSRK[*Y]SSWY-amide] (HELM PEPTIDE1{[CCCCCCCCCCCCCCCC(=O)[*:2]].Y.R.S.R.K.[dY].S.S.W.Y.[am]}$$$$V2.0) | 96.3
